Observed IC50, system NACHT, LRR and PYD domains-containing protein 3 (Homo sapiens).
The reply should contain only the number, in nM.

In plain terms, CCOC[C@@H]1OCCN(S(=O)(=O)NC(=O)c2coc(Nc3cc(C)c(F)cc3C)n2)C[C@H]1OC has a documented IC50 of 820

In plain terms, Cc1ccc(C(F)(F)F)cc1Nc1nc(C(=O)NS(=O)(=O)N2C[C@H]3COC[C@@H]3C2)co1 has a documented IC50 of 320

In plain terms, Cc1ccc(C(C)(C)C)cc1Nc1nc(C(=O)NS(=O)(=O)N2CCCOCC2)co1 has a documented IC50 of 65

In plain terms, COCCC1(C#N)CCCN(S(=O)(=O)NC(=O)c2coc(Nc3cc(C(F)(F)F)ccc3C)n2)CC1 (centres undefined) has a documented IC50 of 30

In plain terms, Cc1ccc(C(C)C)cc1Nc1nc(C(=O)NS(=O)(=O)N(C)Cc2ccccn2)co1 has a documented IC50 of 48

In plain terms, Cc1ccc(C(F)(F)F)cc1Nc1nc(C(=O)NS(=O)(=O)N2CCCC(C#N)(C(=O)N3CCCC3)CC2)co1 (centres undefined) has a documented IC50 of 28

In plain terms, CC(C)c1ccc(C(F)(F)F)cc1Nc1ncc(C(=O)NS(=O)(=O)N2CCCOCC2)o1 has a documented IC50 of 44

In plain terms, Cc1ccc(C(F)(F)F)cc1Nc1nc(C(=O)NS(=O)(=O)N(C(C)C)C(C)C)co1 has a documented IC50 of 44

In plain terms, Cc1cccc(C)c1Nc1nc(C(=O)NS(=O)(=O)N2CCCOCC2)co1 has a documented IC50 of 1300

In plain terms, CCC1(C#N)CCCN(S(=O)(=O)NC(=O)c2coc(Nc3cc(C(F)(F)F)ccc3C)n2)CC1 (centres undefined) has a documented IC50 of 31

In plain terms, Cc1ccc(C(F)(F)F)cc1Nc1nc(C(=O)NS(=O)(=O)N2CCCCC2C(F)F)co1 (centres undefined) has a documented IC50 of 110

In plain terms, CCOCC1CCN(S(=O)(=O)NC(=O)c2coc(Nc3cc(C(C)C)c(F)cc3C)n2)CCO1 (centres undefined) has a documented IC50 of 13

In plain terms, COC1COCCN(S(=O)(=O)NC(=O)c2coc(Nc3cc(C(C)C)c(F)cc3C)n2)C1 (centres undefined) has a documented IC50 of 16

In plain terms, Cc1ccc(C(F)(F)F)cc1Nc1nc(C(=O)NS(=O)(=O)N(C)C2CC2)co1 has a documented IC50 of 100

###

I'd be grateful if you could share measured pIC50 for these entries.
Note on units: pIC50 is unitless, being -log10 of a concentration expressed in mol/L.

Field pIC50 (system: NACHT, LRR and PYD domains-containing protein 3 (Homo sapiens, UniProt Q96P20)) for entry Cc1ccc(C(F)(F)F)cc1Nc1nc(C(=O)NS(=O)(=O)N2CCN(c3ccccc3)CC2)co1 [US20230399319, Example 2-274] = 6.74

Field pIC50 (system: NACHT, LRR and PYD domains-containing protein 3 (Homo sapiens, UniProt Q96P20)) for entry Cc1ccc(C(F)(F)F)cc1Nc1nc(C(=O)NS(=O)(=O)N(C)Cc2cnccn2)co1 [US20230399319, Example 2-236] = 7.00

Field pIC50 (system: NACHT, LRR and PYD domains-containing protein 3 (Homo sapiens, UniProt Q96P20)) for entry COC[C@@H]1CCCN1S(=O)(=O)NC(=O)c1coc(Nc2cc(C)ccc2C)n1 [US20230399319, Example 2-303] = 6.85

Field pIC50 (system: NACHT, LRR and PYD domains-containing protein 3 (Homo sapiens, UniProt Q96P20)) for entry COC[C@H]1CCN(S(=O)(=O)NC(=O)c2coc(Nc3cc(C)c(F)cc3C)n2)CCO1 [US20230399319, Example 3-001] = 7.14

###

I'd be grateful if you could share measured IC50 for these entries.
molecular target: NACHT, LRR and PYD domains-containing protein 3 (Homo sapiens); assay: Evaluation of NLRP3 Inflammasome Inhibitory Activity Assay
The reply should contain only the number, in nM.

In plain terms, Cc1ccc(C(F)(F)F)cc1Nc1nc(C(=O)NS(=O)(=O)N(C)CCS(C)(=O)=O)co1 has a documented IC50 of 420

In plain terms, CCC(=O)N(C)C1CCCN(S(=O)(=O)NC(=O)c2coc(Nc3cc(C(F)(F)F)ccc3C)n2)C1 (configuration not stated) has a documented IC50 of 210

In plain terms, Cc1ccc(C)c(Nc2nc(C(=O)NS(=O)(=O)N3CCOC(COCC4CCC4)CC3)co2)c1 (configuration not stated) has a documented IC50 of 10

In plain terms, Cc1ccc(C(F)(F)F)cc1Nc1nc(C(=O)NS(=O)(=O)N2CCC(C)C2)co1 (configuration not stated) has a documented IC50 of 70

In plain terms, Cc1ccc(C)c(Nc2nc(C(=O)NS(=O)(=O)N3CCCC(C#N)CC3)co2)c1 (configuration not stated) has a documented IC50 of 190

In plain terms, Cc1ccc(C(F)(F)F)cc1Nc1nc(C(=O)NS(=O)(=O)N2CCCS(=O)(=O)CC2)co1 has a documented IC50 of 170

In plain terms, Cc1ccc(C(F)(F)F)cc1Nc1nc(C(=O)NS(=O)(=O)N2CCC2C)co1 (configuration not stated) has a documented IC50 of 100

###

target: NACHT, LRR and PYD domains-containing protein 3 (Homo sapiens)
pIC50: −log10 of the molar value.
Label label 1 for high-side pIC50 (at or above 7) and label 0 for low-side pIC50 (below it).

In: Kindly determine if pIC50 recorded for CC(C)c1ccc(C(F)(F)F)cc1Nc1nc(C(=O)NS(=O)(=O)N2CCOCC2)co1 [US20230399319, Example 2-026] is above or exactly 7.
Out: label 1

In: Kindly determine if pIC50 recorded for CC(C)c1ccc(C(F)(F)F)cc1Nc1nc(C(=O)NS(=O)(=O)N(C)C)co1 [US20230399319, Example 2-025] is above or exactly 7.
Out: label 1

In: Kindly determine if pIC50 recorded for Cc1ccc(C(F)(F)F)cc1Nc1nc(C(=O)NS(=O)(=O)N2CCCC(C#N)(C(=O)N(C)C)CC2)co1 (centres undefined) [US20230399319, Example 2-260] is above or exactly 7.
Out: label 1

In: Kindly determine if pIC50 recorded for CC1CCN(S(=O)(=O)NC(=O)c2coc(Nc3c4c(c(F)c5c3CCC5)CCC4)n2)C1 (centres undefined) [US20230399319, Example 2-008] is above or exactly 7.
Out: label 0

In: Kindly determine if pIC50 recorded for Cc1cc(F)c(C(C)C)cc1Nc1nc(C(=O)NS(=O)(=O)N2CCOCC(O)C2)co1 (centres undefined) [US20230399319, Example 2-350] is above or exactly 7.
Out: label 1

In: Kindly determine if pIC50 recorded for Cc1ccc(C)c(Nc2nc(C(=O)NS(=O)(=O)N3CCOC(CC#N)CC3)co2)c1 (centres undefined) [US20230399319, Example 2-349] is above or exactly 7.
Out: label 0

In: Kindly determine if pIC50 recorded for Cc1ccc(C(F)(F)F)cc1Nc1nc(C(=O)NS(=O)(=O)N(C)CC(=O)N(C)C)co1 [US20230399319, Example 2-110] is above or exactly 7.
Out: label 0

In: Kindly determine if pIC50 recorded for COC[C@@H]1CCCN1S(=O)(=O)NC(=O)c1coc(Nc2cc(C(F)(F)F)ccc2C)n1 [US20230399319, Example 2-038] is above or exactly 7.
Out: label 1

###

I'd be grateful if you could share measured pIC50 for these entries.
target: NACHT, LRR and PYD domains-containing protein 3 (Homo sapiens)
Note on units: pIC50 is unitless, being -log10 of a concentration expressed in mol/L.

In plain terms, CC1(C)CCN(S(=O)(=O)NC(=O)c2coc(Nc3c4c(c(F)c5c3CCC5)CCC4)n2)C1 has a documented pIC50 of 6.42

In plain terms, Cc1ccc(C(F)(F)F)cc1Nc1nc(C(=O)NS(=O)(=O)N2CCCC2C)co1 (stereo not given) has a documented pIC50 of 7.26

In plain terms, COCCCN(C)S(=O)(=O)NC(=O)c1coc(Nc2cc(C(F)(F)F)ccc2C)n1 has a documented pIC50 of 7.03

In plain terms, CCCCC1(C#N)CCCN(S(=O)(=O)NC(=O)c2coc(Nc3cc(C(F)(F)F)ccc3C)n2)CC1 (stereo not given) has a documented pIC50 of 7.52

###

I'd be grateful if you could share measured pIC50 for these entries.
molecular target: NACHT, LRR and PYD domains-containing protein 3 (Homo sapiens, UniProt Q96P20)
Sequence (Q96P20 whole entry, the tested form may be a part): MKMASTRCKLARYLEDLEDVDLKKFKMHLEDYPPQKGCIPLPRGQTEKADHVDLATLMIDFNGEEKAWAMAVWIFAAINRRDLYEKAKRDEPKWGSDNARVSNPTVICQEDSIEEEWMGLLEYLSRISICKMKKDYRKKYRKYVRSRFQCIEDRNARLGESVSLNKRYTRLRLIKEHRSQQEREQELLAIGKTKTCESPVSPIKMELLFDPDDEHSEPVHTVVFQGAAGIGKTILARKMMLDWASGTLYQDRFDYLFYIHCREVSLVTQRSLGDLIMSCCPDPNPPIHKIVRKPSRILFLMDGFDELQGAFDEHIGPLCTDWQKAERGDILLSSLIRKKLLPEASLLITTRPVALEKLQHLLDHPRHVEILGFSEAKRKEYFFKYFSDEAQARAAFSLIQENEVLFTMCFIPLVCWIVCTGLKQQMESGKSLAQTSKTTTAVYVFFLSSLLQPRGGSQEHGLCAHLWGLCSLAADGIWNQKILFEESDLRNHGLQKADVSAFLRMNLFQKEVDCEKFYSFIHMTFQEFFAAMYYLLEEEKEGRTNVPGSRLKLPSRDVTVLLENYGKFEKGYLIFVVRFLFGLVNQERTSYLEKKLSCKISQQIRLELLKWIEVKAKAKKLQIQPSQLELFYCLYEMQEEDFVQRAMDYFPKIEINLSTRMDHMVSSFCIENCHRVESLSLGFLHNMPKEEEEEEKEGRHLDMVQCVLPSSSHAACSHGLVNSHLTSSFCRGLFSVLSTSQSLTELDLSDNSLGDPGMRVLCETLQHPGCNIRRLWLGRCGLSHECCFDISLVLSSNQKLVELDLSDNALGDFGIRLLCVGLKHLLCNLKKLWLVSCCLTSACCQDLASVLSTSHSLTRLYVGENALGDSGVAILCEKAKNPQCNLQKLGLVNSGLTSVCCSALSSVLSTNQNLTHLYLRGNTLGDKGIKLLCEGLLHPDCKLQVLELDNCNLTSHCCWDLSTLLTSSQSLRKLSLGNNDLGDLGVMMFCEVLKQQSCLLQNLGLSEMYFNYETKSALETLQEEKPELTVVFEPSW
Note on units: pIC50 is unitless, being -log10 of a concentration expressed in mol/L.

In plain terms, Cc1cc(Nc2nc(C(=O)NS(=O)(=O)N3CCCOCC3)co2)c(C(C)C)cc1F has a documented pIC50 of 7.59

In plain terms, Cc1ccc(C(F)(F)F)cc1Nc1nc(C(=O)NS(=O)(=O)N2CCN(S(=O)(=O)N(C)C)CC2)co1 has a documented pIC50 of 7.30

In plain terms, CC(C)c1ccc(C(C)C)c(Nc2nc(C(=O)NS(=O)(=O)N3CCCOCC3)co2)c1 has a documented pIC50 of 7.37

In plain terms, Cc1ccc(C(F)(F)F)cc1Nc1nc(C(=O)NS(=O)(=O)N2CCCC(=O)CC2)co1 has a documented pIC50 of 7.49

In plain terms, CC(C)c1ccc(C(F)(F)F)cc1Nc1nc(C(=O)NS(=O)(=O)N2CCCC2CO)co1 (stereo not given) has a documented pIC50 of 7.33
